# Test system: E. coli
# Measurement description: MIC, resazurin broth microdilution
# Format: cell-based, Escherichia coli
# Condition label: media LB
Below, each entry is listed alongside its reported MIC.
Observed property: MIC

>>> value("N#CC(=Cc1cccc([N+](=O)[O-])c1)c1nn(-c2ccccc2)c(-n2cccc2)c1C#N [Compound C8]")
"> 64 µM"
>>> value("O=C(Nc1ccccc1C(=O)O)OCC1c2ccccc2-c2ccccc21 [Compound C5]")
"> 64 µM"
>>> value("O=C(NCCNc1ccc(C(F)(F)F)cc1[N+](=O)[O-])c1cccnc1Oc1ccccc1 [Compound C26]")
"> 256 µM"
